Parameter pIC50: see the listing below.
target: ErbB2 WT (Homo sapiens (Human)); assay: ErbB Enzyme Assay (HTRF KinEASE-TK), Assay 2; assay type: biochemical; settings: ErbB2 WT enzyme
Sequence (P04626 23-1255): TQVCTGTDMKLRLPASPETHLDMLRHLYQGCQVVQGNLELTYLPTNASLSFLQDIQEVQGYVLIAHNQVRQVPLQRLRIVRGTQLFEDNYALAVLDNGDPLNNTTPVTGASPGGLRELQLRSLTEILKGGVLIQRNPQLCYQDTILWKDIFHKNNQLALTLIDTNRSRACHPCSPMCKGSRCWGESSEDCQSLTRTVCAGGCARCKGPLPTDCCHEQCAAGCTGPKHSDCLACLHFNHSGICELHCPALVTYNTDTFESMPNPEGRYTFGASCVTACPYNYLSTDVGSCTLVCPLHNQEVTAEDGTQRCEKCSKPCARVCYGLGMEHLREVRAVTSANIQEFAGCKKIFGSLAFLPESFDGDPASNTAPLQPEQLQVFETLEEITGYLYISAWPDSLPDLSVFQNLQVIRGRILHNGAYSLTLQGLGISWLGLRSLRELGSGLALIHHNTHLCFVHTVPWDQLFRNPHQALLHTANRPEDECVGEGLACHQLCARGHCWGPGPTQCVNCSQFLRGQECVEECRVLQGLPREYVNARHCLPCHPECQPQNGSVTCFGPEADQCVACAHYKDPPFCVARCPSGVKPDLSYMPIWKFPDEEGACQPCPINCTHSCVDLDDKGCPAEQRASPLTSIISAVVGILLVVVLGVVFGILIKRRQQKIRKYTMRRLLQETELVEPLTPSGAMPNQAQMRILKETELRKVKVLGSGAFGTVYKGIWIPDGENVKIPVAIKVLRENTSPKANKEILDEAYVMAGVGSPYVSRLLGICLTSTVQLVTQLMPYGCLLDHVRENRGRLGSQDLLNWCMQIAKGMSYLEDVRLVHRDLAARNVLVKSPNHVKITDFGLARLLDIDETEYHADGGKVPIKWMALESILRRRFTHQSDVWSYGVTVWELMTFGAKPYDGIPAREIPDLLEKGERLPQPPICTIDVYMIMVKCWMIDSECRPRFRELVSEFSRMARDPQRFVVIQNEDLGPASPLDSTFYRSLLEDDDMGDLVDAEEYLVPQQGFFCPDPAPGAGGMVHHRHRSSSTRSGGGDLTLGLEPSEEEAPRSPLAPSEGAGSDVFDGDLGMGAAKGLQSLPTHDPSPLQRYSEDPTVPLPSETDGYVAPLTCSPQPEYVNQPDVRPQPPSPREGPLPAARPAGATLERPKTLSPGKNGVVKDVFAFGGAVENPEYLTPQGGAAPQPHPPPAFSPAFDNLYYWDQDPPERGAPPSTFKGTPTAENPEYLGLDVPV
pIC50: −log10 of the molar value.
value-kind: pIC50

C=CC(=O)N1CCN(c2ccc3ncnc(Nc4ccc(Oc5cnc6c(c5)ncn6C)c(C)c4F)c3n2)CC1(C)C = 7.15
C=CC(=O)N1CCC(Oc2ccc3ncnc(Nc4ccc(Oc5cnn6ccnc6c5)c(C)c4)c3n2)CC1 = 7.12
C=CC(=O)N1C[C@H]2C[C@H](c3ccc4ncnc(Nc5ccc(Oc6ccc7c(c6)ncn7C)c(C)c5F)c4n3)C[C@H]2C1 = 7.66
C=CC(=O)N1CCC(Oc2ccc3ncnc(Nc4cc(C)c(Oc5ccc6cn(C)nc6c5)cc4F)c3n2)CC1 = 5.63
C=CC(=O)N1CC[C@H]2C[C@@H](c3ccc4ncnc(Nc5ccc(Oc6ccc7c(c6)ncn7C)c(C)c5F)c4n3)C[C@H]21 (racemic) = 7.38
C=CC(=O)N1C[C@@H](c2ccc3ncnc(Nc4ccc(Oc5ccc6c(c5)ncn6C)c(C)c4F)c3n2)C[C@@H]1C = 7.57
C=CC(=O)N1CCC(Sc2ccc3ncnc(Nc4ccc(Oc5ccn6ncnc6c5)c(C)c4F)c3n2)CC1 = 7.27
